B1: VH:VL chains; a variant is named by its letters at X, in order (parent)
chain 1: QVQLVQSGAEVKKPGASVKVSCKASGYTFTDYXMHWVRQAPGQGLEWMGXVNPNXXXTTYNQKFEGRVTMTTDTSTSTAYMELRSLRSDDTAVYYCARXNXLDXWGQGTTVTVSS
chain 2: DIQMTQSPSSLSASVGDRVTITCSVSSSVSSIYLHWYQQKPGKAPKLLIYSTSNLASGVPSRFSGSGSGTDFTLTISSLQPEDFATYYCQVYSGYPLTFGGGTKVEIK

# Variants of: B1
# method_summary: yeast display scFab, FACS + sequencing
# condition_info: with MET
The other results are listed elsewhere or left out. The hit rate among all sequences tested is not known here.
measurement_name: antigen binding call

Some solved cases for reference:
Can you look up the measured antigen binding call of `VKEGGSSA` for me?
no binding

Given the variant `DGGRSAVF` , what is its reported antigen binding call?
no binding

Record request: antigen binding call value, item `YKRGSFGA`
no binding

Could you tell me which antigen binding call is on file for `DEGGTDWY` ?
no binding

Consider the variant `VKRGSSGA` and give its measured antigen binding call.
binds

Further cases:
Which measured antigen binding call value corresponds to `DAGGGAVV` ?
no binding

Request the reported antigen binding call associated with `YRRGDASD`
binds
